// assign fulfilled if logP falls strictly below 2, else not fulfilled (ties count as not fulfilled)

compound	class_assignment
CCc1cc2n(c1C(=O)c1ccc(F)cc1)CCC2C(=O)O (stereo not drawn)	not fulfilled
COC(=O)NC1=NCC(c2ccccc2)N1C (stereo not drawn)	fulfilled
NCCOc1cccc2ccccc12	fulfilled

Exercise: In the record for `CN(C)CCOc1cccc2ccccc12` , is logP less than 2?
Key: not fulfilled

Exercise: In the record for COC(=O)NC1=NCC(c2ccccc2)N1 (stereo not drawn) , is logP less than 2?
Key: fulfilled

Exercise: In the record for COC(=O)NC1=NCC(c2ccc(C=O)cc2)N1C (stereo not drawn) , is logP less than 2?
Key: fulfilled

Exercise: In the record for COC(=O)NC1=NCC(c2ccc(C(=O)OC)cc2)N1C (stereo not drawn) , is logP less than 2?
Key: fulfilled

Exercise: In the record for COC(=O)NC1=NCC(c2ccc(CO)cc2)N1C (stereo not drawn) , is logP less than 2?
Key: fulfilled

Exercise: In the record for CCc1cc2n(c1C(=O)c1ccccc1)CCC2C(=O)O (stereo not drawn) , is logP less than 2?
Key: not fulfilled

Exercise: In the record for CCOC(=O)NC1=NCC(c2ccc(CO)cc2)N1C (stereo not drawn) , is logP less than 2?
Key: fulfilled

Exercise: In the record for COC(=O)NC1=NCC(c2ccc(C(F)(F)F)cc2)N1 (stereo not drawn) , is logP less than 2?
Key: not fulfilled

Exercise: In the record for Cc1ccc(C(=O)c2c(C)cc3n2CCC3C(=O)O)cc1 (stereo not drawn) , is logP less than 2?
Key: not fulfilled
